The origin of these recorded values is PubChem BioAssay.

test: E. coli acrAB mutant growth effects, primary screen, E. coli filamentation inducers, strain DRC39, OD650, 24 h (AID 1178); conditions: higher = more signal, called active from +8 up or from −8 down;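 further: growth measured as culture turbidity by optical density at 650 nm; test concentration not given here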
Values of z-score greater than or equal to -0.1 map to t; values below map to f.

# count of solved cases: 5
CC(CCC(=O)OC[C@H]1O[C@H](C#Cc2ccccc2)C=C[C@@H]1Oc1ccc(C)cc1)=NO[C@H](C)c1cn([C@H](CO)Cc2ccccc2)nn1	t
CC(C)=CCCC(C)=CCON=C1C[C@@H](O)[C@@H](O)[C@@H]2[C@@H]3C(=O)N(Cc4ccccc4)C(=O)[C@@H]3CC[C@@H]12	t
O=C1CCCC=C1C(CCc1ccccc1)OC(=O)c1ccc(Br)cc1 (stereo not given)	f
COC(=O)[C@@H]1CC[C@H](C)[C@@H](c2ccc(C)cc2)N1C(=O)c1ccc(C=NOC[C@@H](C)[C@H](OCc2ccccc2)C(C)C)cc1	t
C#CCCCON=C1[C@H]2CCn3c(=O)n(-c4ccccc4)c(=O)n3[C@H]2[C@H](O)[C@@H]2O[C@H]12	f

Determine whether measured z-score meets or exceeds -0.1 for C=CC[C@@H]1C=C[C@H](ON=C[C@@H](C)[C@H](OCc2ccccc2)C(C)C)[C@@H](CO)O1
f

Determine whether measured z-score meets or exceeds -0.1 for COC(=O)CC=C[C@@H](C)[C@H](OCc1cccc(-c2ccccc2)c1)C1CCCCC1
f

Determine whether measured z-score meets or exceeds -0.1 for CCOC(=O)[C@H](CC(C)C)NC(=O)CCC1CC(OC(=O)NCc2cccc3ccccc23)CC2(CCCC(COC(=O)NCc3cccc(C(F)(F)F)c3)O2)O1 (stereo not given in full)
t

Determine whether measured z-score meets or exceeds -0.1 for COc1cccc([C@H]2Oc3ccc(OC)cc3C(=NO[C@@H](C)c3cn([C@H](CO)Cc4ccccc4)nn3)[C@@H]2O)c1
f

Determine whether measured z-score meets or exceeds -0.1 for COC(=O)[C@@H]1CC[C@H](C)[C@@H](c2ccc(C)cc2)N1C(=O)c1ccc(C=NO[C@H](C)c2cn([C@H](CO)Cc3ccccc3)nn2)cc1
f

Determine whether measured z-score meets or exceeds -0.1 for CO[C@H]1COC(=O)CC=C[C@@H](C)[C@H](OC)COC(=O)[C@@H]2CCCN2C(=O)CC=C[C@@H]1C
t

Determine whether measured z-score meets or exceeds -0.1 for CCOC(=O)[C@H](CC(C)C)NC(=O)CCC1CC(OC(=O)NCCc2ccc(F)cc2)CC2(CCCC(COC(=O)NCCc3ccccc3OC)O2)O1 (stereo not given in full)
t

Determine whether measured z-score meets or exceeds -0.1 for COC(=O)[C@H](C)NC(=O)CCC1CC(OC(=O)NCc2ccc3c(c2)OCO3)CC2(CCCC(COC(=O)NCC(c3ccccc3)c3ccccc3)O2)O1 (stereo not given in full)
f

Determine whether measured z-score meets or exceeds -0.1 for C[C@@H]1NC(=O)[C@@H](C)COC(=O)[C@H](C)NC(=O)[C@@H](C)COC1=O
t

Determine whether measured z-score meets or exceeds -0.1 for C#CCCCON=C1C[C@@H](O)[C@@H](O)[C@@H]2[C@@H]3C(=O)N(CC)C(=O)[C@@H]3CC[C@@H]12
t

----------
biological target: Streptavidin (Streptomyces avidinii); test: streptavidin binders on small-molecule microarray, primary screen, artefact control for SMM compound annotation, biophysical, 635/667 nm fluorescence (AID 1147); details: streptavidin binding, higher = more signal;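 further: signal reflects streptavidin binding to arrayed compounds as a control protein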
quantity_kind: composite z-score

// below: answered compounds
O=C(NN=C1C[C@@H](O)[C@@H](O)[C@@H]2[C@@H]3C(=O)N(C4CCCCC4)C(=O)[C@@H]3CC[C@H]12)OCc1ccccc1	0.0049
CC(C)=CCCC(C)=CCON=C1C[C@@H](O)[C@@H](O)[C@@H]2[C@@H]3C(=O)N(Cc4ccccc4)C(=O)[C@@H]3CC[C@H]12	0.0609
COc1ccc(COC(=O)NN=C2C[C@@H](O)[C@@H](O)[C@@H]3[C@@H]4C(=O)N(C5CCCCC5)C(=O)[C@@H]4CC[C@H]23)cc1	-0.332

Entry CCCNC(=O)OC[C@H]1O[C@H](CCON=C(C)CCC(=O)OC[C@H]2O[C@H](c3ccccc3)C=C[C@@H]2Oc2ccc(OC)cc2)C=C[C@@H]1Oc1ccc(OC)cc1 , Streptavidin (Streptomyces avidinii) data, composite z-score value: 0.728

Entry COc1cccc([C@H]2Oc3ccc(OC)cc3C(=NOC[C@@H](C)[C@H](OCc3ccccc3)C(C)C)[C@@H]2O)c1 , Streptavidin (Streptomyces avidinii) data, composite z-score value: -0.234

Entry CCOC(=O)[C@H](Cc1ccccc1)NC(=O)CCC1CC(OC(=O)NCCc2ccc(F)cc2)CC2(CCCC(COC(=O)NCCCN3CCCC3=O)O2)O1 (some centres undefined) , Streptavidin (Streptomyces avidinii) data, composite z-score value: 0.625

Entry O=c1n(-c2ccccc2)c(=O)n2n1CC[C@@H]1C(=NOCc3ccccc3)[C@H]3O[C@H]3[C@@H](O)[C@@H]12 , Streptavidin (Streptomyces avidinii) data, composite z-score value: -0.445

Entry COc1cccc([C@H]2Oc3ccc(OC)cc3C(=NOC[C@@H](O)[C@H]3O[C@@H]4OC(C)(C)O[C@@H]4[C@H]3O)[C@@H]2O)c1 , Streptavidin (Streptomyces avidinii) data, composite z-score value: -0.311

Entry COC(=O)[C@@H]1CC[C@H](C)[C@@H](c2ccc(C)cc2)N1C(=O)c1ccc(C=NO[C@H](C)c2cn([C@H](CO)Cc3ccccc3)nn2)cc1 , Streptavidin (Streptomyces avidinii) data, composite z-score value: 0.0407

Entry CC(C)=CCCC(C)=CCON=C1C[C@@H](O)[C@@H](O)[C@@H]2[C@@H]3C(=O)N(C(C)(C)C)C(=O)[C@@H]3CC[C@H]12 , Streptavidin (Streptomyces avidinii) data, composite z-score value: 0.0957

Entry O=C1C[C@@H](O)[C@@H](O)[C@@H]2[C@@H]3C(=O)N(C[C@@H]4CCCO4)C(=O)[C@@H]3CC[C@@H]12 , Streptavidin (Streptomyces avidinii) data, composite z-score value: 0.622

Entry C#CCCCON=C1[C@H]2CCn3c(=O)n(-c4ccccc4)c(=O)n3[C@H]2[C@H](O)[C@@H]2O[C@H]12 , Streptavidin (Streptomyces avidinii) data, composite z-score value: -0.126

Entry CCOC(=O)[C@H](CC(C)C)NC(=O)CCC1CC(OC(=O)NCc2cccc3ccccc23)CC2(CCCC(COC(=O)NCCCN3CCCC3=O)O2)O1 (some centres undefined) , Streptavidin (Streptomyces avidinii) data, composite z-score value: 0.286

Entry CC(C)CON=C1C[C@@H](O)[C@@H](O)[C@@H]2[C@@H]3C(=O)N(C4CCCCC4)C(=O)[C@@H]3CC[C@H]12 , Streptavidin (Streptomyces avidinii) data, composite z-score value: 0.451
